Listed here: items and their measured NanoBRET Abs IC50 (bin >1.5 uM).
biological target: beta-catenin (human); assay: cell-based or functional assay
Sequence (B6V8E6 146-665 limits assumed): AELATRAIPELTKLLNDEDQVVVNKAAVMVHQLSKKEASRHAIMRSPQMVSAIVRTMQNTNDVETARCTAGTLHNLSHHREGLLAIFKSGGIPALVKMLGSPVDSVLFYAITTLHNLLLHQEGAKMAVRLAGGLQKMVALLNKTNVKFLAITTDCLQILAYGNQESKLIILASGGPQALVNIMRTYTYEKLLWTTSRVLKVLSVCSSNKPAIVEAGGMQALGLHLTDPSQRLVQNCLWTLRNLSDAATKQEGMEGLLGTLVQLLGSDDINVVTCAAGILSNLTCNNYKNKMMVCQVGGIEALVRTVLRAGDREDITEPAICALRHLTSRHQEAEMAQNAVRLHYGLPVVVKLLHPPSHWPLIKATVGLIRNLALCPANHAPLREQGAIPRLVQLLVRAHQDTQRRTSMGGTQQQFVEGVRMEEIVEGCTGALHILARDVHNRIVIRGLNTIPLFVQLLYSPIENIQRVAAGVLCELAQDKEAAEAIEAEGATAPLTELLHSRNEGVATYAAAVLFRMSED
*1 amine or outer side, *2 acyl side, *3 side chain or, on linkers, in order; H or OH if unused. Bridges are numbered along the chain shown (N, C = ends). Primed or numbered codes have the meaning given here. [ ]: non-standard residue; d: D form. PyrS2″ = (S)-3-amino-1-((pent-4-en-1-yloxy)carbonyl)pyrrolidine-3-carboxylic acid (olefin stapling residue), C=CCCCOC(=O)N1CC[C@@](N[*:1])(C(=O)[*:2])C1; 2F3MeF(3) = aromatic amino acid residue, Cc1cccc(C[C@H](N[*:1])C(=O)[*:2])c1F; Phe(3-COOH) = N[C@@H](Cc1cccc(C(=O)O)c1)C(=O)O; 2F3MeF = Cc1cccc(C[C@H](N[*:1])C(=O)[*:2])c1F; Bta = N[C@@H](Cc1csc2ccccc12)C(=O)O; BztA = aromatic amino acid residue; Cha = N[C@@H](CC1CCCCC1)C(=O)O; PyrS2(4) = not defined here; GlnR = not defined here; PL3 = not defined here; B5 = not defined here

Please look up its NanoBRET Abs IC50 (bin >1.5 uM): Ac-[PL3]D[Cha][B5]D[Phe(3-COOH)]AAFK[PyrS2″][2F3MeF(3)][BztA][GlnR]A-NH2 (staple 1-4 (inferred); bridge 10-14; not fully specified (residue 10, bridges); printed as Ac-PL3-Asp-Cha-B5-Asp-3COOHF-Ala-Ala-Phe-Lys*3-PyrS2-2F3MeF-BztA-GlnR*3-Ala-NH2; reading uncertain; also: Lys10 and GlnR14 marked *3) [I-97]
< 3000 nM

Query: NanoBRET Abs IC50 (bin >1.5 uM); subject: XDXXDXTAFKXXXQA (not fully specified; Ac-PL3-Asp-Npg-B5-Asp-3COOHF-Thr-Ala-Phe-Lys*3-PyrS2-2F3MeF-BztA-GlnR*3-Ala-NH2) [I-73]
< 3000 nM

Item Ac-[PL3]D[Cha][B5]D[Phe(3-COOH)]AAFK[PyrS2(4)][2F3MeF][Bta][GlnR]L-NH2 (staple 1-4; bridge 10-14; not fully specified (residue 10); printed as Ac-PL3-Asp-Cha-B5-Asp-3COOHF-Ala-Ala-Phe-Lys*3-PyrS2-2F3MeF-BztA-GlnR*3-Leu-NH2; reading uncertain; also: PyrS2 tied into a staple, partner not placed) [I-106] has what recorded NanoBRET Abs IC50 (bin >1.5 uM)?
< 3000 nM

These measurements were taken from patent US20260207704A1.
